- System: Cunninghamella bertholletiae
- ASSAY_COMMENT: Antifungal activity against Cunninghamella bertholletiae UTHSC 05-2275 after 24 hrs by broth microdilution method
- Type: functional
- RUN_CONDITIONS: UTHSC 05-2275, 24 h

COMPOUND	BOUND_TYPE	MIC, µg/mL
CC[C@H](C)C[C@H](C)CCCCCCCCC(=O)N[C@H]1C[C@@H](O)[C@@H](NCCN)NC(=O)[C@@H]2[C@@H](O)CCN2C(=O)[C@H]([C@H](O)CCN)NC(=O)[C@H]([C@H](O)[C@@H](O)c2ccc(O)cc2)NC(=O)[C@@H]2C[C@@H](O)CN2C(=O)[C@H]([C@@H](C)O)NC1=O [CASPOFUNGIN]	>	16
CC[C@@H]([C@H](C)O)n1ncn(-c2ccc(N3CCN(c4ccc(OC[C@@H]5CO[C@@](Cn6cncn6)(c6ccc(F)cc6F)C5)cc4)CC3)cc2)c1=O [POSACONAZOLE]	=	0.5
CCC(C)n1ncn(-c2ccc(N3CCN(c4ccc(OCC5COC(Cn6cncn6)(c6ccc(Cl)cc6Cl)O5)cc4)CC3)cc2)c1=O (configuration not stated) [ITRACONAZOLE]	=	2
C[C@@H](c1ncncc1F)[C@](O)(Cn1cncn1)c1ccc(F)cc1F [VORICONAZOLE]	=	16
CN(C/C=C/C#CC(C)(C)C)Cc1cccc2ccccc12 [TERBINAFINE]	=	0.06
C[C@@H](c1nc(-c2ccc(C#N)cc2)cs1)[C@](O)(Cn1cncn1)c1ccc(F)cc1F [RAVUCONAZOLE]	>	16
C[C@@H]1[C@H](O)[C@@H](C)/C=C/C=C/C=C/C=C/C=C/C=C/C=C/[C@H](O[C@@H]2O[C@H](C)[C@@H](O)[C@H](N)[C@@H]2O)C[C@@H]2O[C@](O)(C[C@@H](O)C[C@@H](O)[C@H](O)CC[C@@H](O)C[C@@H](O)CC(=O)O[C@H]1C)C[C@H](O)[C@H]2C(=O)O [AMPHOTERICIN B]	=	2

----------
- ASSAY_COMMENT: Antifungal activity against Cunninghamella echinulata UTHSC 01-2298 after 24 hrs by broth microdilution method
- Format: functional
// reported MIC for each item listed
ENDPOINT_LABEL: MIC (µg/mL)

MOLECULE	ENDPOINT_LABEL	UNIT_LABEL	BOUND_TYPE	READING
C[C@@H]1[C@H](O)[C@@H](C)/C=C/C=C/C=C/C=C/C=C/C=C/C=C/[C@H](O[C@@H]2O[C@H](C)[C@@H](O)[C@H](N)[C@@H]2O)C[C@@H]2O[C@](O)(C[C@@H](O)C[C@@H](O)[C@H](O)CC[C@@H](O)C[C@@H](O)CC(=O)O[C@H]1C)C[C@H](O)[C@H]2C(=O)O	MIC	µg/mL	=	16
CCC(C)n1ncn(-c2ccc(N3CCN(c4ccc(OCC5COC(Cn6cncn6)(c6ccc(Cl)cc6Cl)O5)cc4)CC3)cc2)c1=O (configuration not stated)	MIC	µg/mL	>	16
CC[C@@H]([C@H](C)O)n1ncn(-c2ccc(N3CCN(c4ccc(OC[C@@H]5CO[C@@](Cn6cncn6)(c6ccc(F)cc6F)C5)cc4)CC3)cc2)c1=O	MIC	µg/mL	=	16
C[C@@H](c1nc(-c2ccc(C#N)cc2)cs1)[C@](O)(Cn1cncn1)c1ccc(F)cc1F	MIC	µg/mL	>	16
CC[C@H](C)C[C@H](C)CCCCCCCCC(=O)N[C@H]1C[C@@H](O)[C@@H](NCCN)NC(=O)[C@@H]2[C@@H](O)CCN2C(=O)[C@H]([C@H](O)CCN)NC(=O)[C@H]([C@H](O)[C@@H](O)c2ccc(O)cc2)NC(=O)[C@@H]2C[C@@H](O)CN2C(=O)[C@H]([C@@H](C)O)NC1=O	MIC	µg/mL	>	16
CN(C/C=C/C#CC(C)(C)C)Cc1cccc2ccccc12	MIC	µg/mL	=	0.06
C[C@@H](c1ncncc1F)[C@](O)(Cn1cncn1)c1ccc(F)cc1F	MIC	µg/mL	>	16
